This section presents compounds with their documented pIC50 values.
- MEASURED_ON: MAPK14 (human)
- METHOD_DESCRIPTION: Inhibition of LPS-stimulated TNF-alpha Production in Human Monocytic Cells
- EXPERIMENTAL_CONDITIONS: thp.1 monocytic
pIC50: −log10 of the molar value.

# SAMPLE_SMILES, OPERATOR_SYMBOL, pIC50
records = [
    ("COC[C@H](C)Nc1nccc(-c2nn3c(c2-c2ccc(F)cc2)OCC3)n1", "=", 5.77),
    ("CCOCn1nnc(-c2ccncc2)c1-c1ccc(F)cc1", "=", 6.31),
    ("Fc1ccc(-c2c(-c3ccnc(Oc4ccccc4)n3)nn3c2OCCC3)cc1", "<", 5.00),
    ("C[C@H](Nc1nccc(-c2nn3c(c2-c2ccc(F)cc2)OCC3)n1)c1ccccc1", "<", 5.70),
    ("CC[C@H](C)Nc1nccc(-c2nn3c(c2-c2ccc(F)cc2)OCC3)n1", "=", 7.10),
]
